Target: Bcl-2 protein (Recombinant Human Bcl-2 Protein) (Homo sapiens)
Construct: purchased Novus NBP2-34889
Sequence (P10415 whole entry): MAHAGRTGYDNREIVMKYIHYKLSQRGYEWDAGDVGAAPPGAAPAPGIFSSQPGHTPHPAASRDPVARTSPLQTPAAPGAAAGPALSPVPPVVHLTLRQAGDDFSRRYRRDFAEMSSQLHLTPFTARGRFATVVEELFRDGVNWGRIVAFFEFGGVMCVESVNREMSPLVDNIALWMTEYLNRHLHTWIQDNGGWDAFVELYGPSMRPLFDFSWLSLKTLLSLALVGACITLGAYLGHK
Test: Binding evaluation of mixture library compounds to Bcl-2 using AS-MS (affinity selection mass spectrometry)
Settings: AS-MS on the mixture of 1200 library compounds; ASMS Ratio(%)=(A−C)/B×100; replicate n = 1
Below is a list of entries, each paired with its recorded ASMS ratio (%) n = 1 value.
Expressed in %, but write only the number.

response.value for CCOc1cncc(-c2cc(CN3CCN(c4ccc(C(=O)N(C)CC56CC7CC(CC(C7)C5)C6)nn4)CC3)cc(OC(F)(F)F)c2)c1 [B3A090-01] (field: ASMS ratio (%) n = 1) = 5.8
